molecular target: UniProtKB Q86V86
pIC50: −log10 of the molar value.
Property: pIC50

Worked cases, pIC50 given:
{"Compound": "C[C@H]1C[C@@H](c2ccncc2NC(=O)c2ccc(F)c(-c3c(F)cc(C4(F)COC4)cc3F)n2)C[C@@H](N)[C@H]1O", "Endpoint Result": 8.16}
{"Compound": "CCc1cc(F)c(-c2nc(C(=O)Nc3cnccc3N3C[C@@H](N)[C@H](O)[C@@H](C)C3)ccc2F)c(F)c1", "Endpoint Result": 9.60}
{"Compound": "C=Cc1ccc(F)c(-c2nc(C(=O)Nc3cnccc3[C@H]3C[C@@H](N)[C@H](O)[C@@H](C)C3)ccc2F)c1F", "Endpoint Result": 7.99}
{"Compound": "COc1ccc(F)c(-c2nc(C(=O)Nc3cnccc3[C@@H]3C[C@H](C)C[C@H](N)C3)ccc2F)c1F", "Endpoint Result": 8.99}
{"Compound": "C[C@@H]1C[C@H](N)C[C@H](c2ccncc2NC(=O)c2ccc(F)c(-c3c(F)cc(OC4CCOCC4)cc3F)n2)C1", "Endpoint Result": 9.49}

(a) COCCCOc1cc(F)c(-c2nc(C(=O)Nc3cnccc3[C@H]3C[C@@H](N)[C@H](O)[C@@H](C)C3)ccc2F)c(F)c1
(b) C[C@@H]1C[C@H](N)C[C@H](c2ccncc2NC(=O)c2ccc(F)c(-c3c(F)cc(OC[C@H](O)CO)cc3F)n2)C1
(c) CCOc1cc(F)c(-c2nc(C(=O)Nc3cnccc3N3C[C@@H](N)[C@H](O)[C@@H](C)C3)ccc2F)c(F)c1
// query Sort by pIC50, descending. Output spec: a listing of the labels in the requested order.
// result c, b, a

(A) C[C@@H]1C[C@H](N)C[C@H](c2ccncc2NC(=O)c2ccc(F)c(-c3c(F)ccc(OC[C@H](O)CO)c3F)n2)C1
(B) CCOC(C)(C)c1cc(F)c(-c2nc(C(=O)Nc3cnccc3[C@H]3C[C@@H](N)[C@H](O)[C@@H](C)C3)ccc2F)c(F)c1
// query Lower value for measured pIC50? Options: A , B Mark your answer with the label of the selected entry.
// result B
(B: 8.20, A: 8.96)

(1) C[C@@H]1C[C@H](N)C[C@H](c2ccncc2NC(=O)c2ccc(F)c(-c3c(F)cc(OC4CCOC4)cc3F)n2)C1 (stereo in doubt)
(2) CC(C)Oc1cc(F)c(-c2nc(C(=O)Nc3cnccc3[C@H]3C[C@@H](N)[C@H](O)[C@@H](C)C3)ccc2F)c(F)c1
(3) COCCOc1cc(F)c(-c2nc(C(=O)Nc3cnccc3[C@H]3C[C@@H](N)[C@H](O)[C@@H](C)C3)ccc2F)c(F)c1
// query Arrange the 3 entries by pIC50 so the values rise. Answer by listing the labels in the requested order.
// result 3, 1, 2
(3: 8.61, 1: 9.01, 2: 9.46)

###

Entries with reported IC50 on UniProtKB Q86V86
Property: IC50 (pM)

(A) CCC(=O)c1cc(F)c(-c2nc(C(=O)Nc3cnccc3N3C[C@@H](N)[C@H](O)[C@@H](C)C3)ccc2F)c(F)c1
(B) COCCOc1ccc(F)c(-c2nc(C(=O)Nc3cnccc3[C@H]3C[C@@H](N)[C@H](O)[C@@H](C)C3)ccc2F)c1F
(C) CC(C)Oc1cc(F)c(-c2nc(C(=O)Nc3cnccc3[C@@H]3C[C@H](C)C[C@H](N)C3)c(N)cc2F)c(F)c1
// query Ranking request: IC50, max to min, items above. # list labels per requested ordering
// result B, A, C

###

molecular target: Pim 2 (Homo sapiens, UniProt Q9P1W9)
Sequence (Q9P1W9 whole entry): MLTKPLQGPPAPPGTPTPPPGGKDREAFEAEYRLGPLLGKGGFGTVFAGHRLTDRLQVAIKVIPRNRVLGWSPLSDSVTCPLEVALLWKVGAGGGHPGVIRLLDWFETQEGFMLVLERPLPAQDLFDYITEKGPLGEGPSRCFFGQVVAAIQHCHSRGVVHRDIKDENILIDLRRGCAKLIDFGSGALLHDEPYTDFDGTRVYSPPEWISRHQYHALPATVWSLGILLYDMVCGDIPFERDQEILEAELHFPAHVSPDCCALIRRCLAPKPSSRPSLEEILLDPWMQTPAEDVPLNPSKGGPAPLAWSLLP
Property: IC50 (nM)

Some solved cases for reference:
{"Compound": "C[C@H]1C[C@@H](c2ccncc2NC(=O)c2ccc(F)c(-c3c(F)cc(OCC(C)(C)O)cc3F)n2)C[C@@H](N)[C@@H]1O [Example 51]", "Measure Unit": "nM", "Endpoint Result": 4.34}
{"Compound": "C[C@H]1CN(c2ccncc2NC(=O)c2nc(-c3c(F)cc(C4COC4)cc3F)c(F)cc2N)C[C@@H](N)[C@@H]1O [Example 107]", "Measure Unit": "nM", "Endpoint Result": 1.03}
{"Compound": "C[C@@H]1C[C@H](N)C[C@H](c2ccncc2NC(=O)c2ccc(F)c(-c3c(F)cc(CC(C)(C)O)cc3F)n2)C1 [Example 84]", "Measure Unit": "nM", "Endpoint Result": 1.48}
{"Compound": "C[C@H]1C[C@@H](c2ccncc2NC(=O)c2ccc(F)c(-c3c(F)cc(OCC4CC4)cc3F)n2)C[C@@H](N)[C@@H]1O [Example 42]", "Measure Unit": "nM", "Endpoint Result": 2.77}
{"Compound": "CCOCc1cc(F)c(-c2nc(C(=O)Nc3cnccc3[C@@H]3C[C@H](C)C[C@H](N)C3)ccc2F)c(F)c1 [Example 81]", "Measure Unit": "nM", "Endpoint Result": 0.42}

(1) C[C@@H]1C[C@H](N)C[C@H](c2ccncc2NC(=O)c2ccc(F)c(-c3c(F)cc(CN4CCCC4=O)cc3F)n2)C1 [Example 144]
(2) C[C@@H]1C[C@H](N)C[C@H](c2ccncc2NC(=O)c2ccc(F)c(-c3c(F)cc(OCCN4CCCC4=O)cc3F)n2)C1 [Example 132]
// query Name the one with the greater IC50 value, either 1 or 2 as given. Please respond with the label that marks your chosen entry.
// result 2

###

Recorded IC50 values (Pim 2 (Homo sapiens, UniProt Q9P1W9)) are given below.
Property: IC50 (nM)

Some molecules with known IC50 results, for comparison:
{"Structure Notation": "COC(C)(C)COc1cc(F)c(-c2nc(C(=O)Nc3cnccc3[C@@H]3C[C@H](C)C[C@H](N)C3)ccc2F)c(F)c1", "IC50 (nM)": 2.77}
{"Structure Notation": "COCCc1cc(F)c(-c2nc(C(=O)Nc3cnccc3[C@@H]3C[C@H](C)C[C@H](N)C3)ccc2F)c(F)c1", "IC50 (nM)": 1.69}

(I) C=CCOc1ccc(F)c(-c2nc(C(=O)Nc3cnccc3[C@H]3C[C@@H](N)[C@H](O)[C@@H](C)C3)ccc2F)c1F
(II) COCCCOc1cc(F)c(-c2nc(C(=O)Nc3cnccc3[C@@H]3C[C@H](C)C[C@H](N)C3)ccc2F)c(F)c1
// query I'm curious, which of these has a smaller IC50 number: I or II ? Please respond with the label that marks your chosen entry.
// result II
(II: 1.62 nM, I: 10.4 nM)

(1) C[C@H]1C[C@@H](c2ccncc2NC(=O)c2ccc(F)c(-c3c(F)cc(O[C@H]4CCCOC4)cc3F)n2)C[C@@H](N)[C@@H]1O
(2) C[C@@H]1C[C@H](N)C[C@H](c2ccncc2NC(=O)c2ccc(F)c(-c3c(F)cc(C4CCS(=O)(=O)CC4)cc3F)n2)C1
// query Could you please tell me which of these two has the higher IC50: 1 or 2 ? Give the label of your selection.
// result 1

###

target: Pim 3 (Homo sapiens, UniProt Q86V86)
Property: IC50 (nM)

{"Structure Notation": "COCCOc1cc(F)c(-c2cccc(C(=O)Nc3cnccc3[C@@H]3C[C@H](C)C[C@H](N)C3)n2)c(F)c1", "Property": "IC50", "Endpoint Result": 1.96}
{"Structure Notation": "CC(C)Oc1cc(F)c(-c2nc(C(=O)Nc3cnccc3[C@@H]3C[C@H](C)C[C@H](N)C3)ccc2F)c(F)c1", "Property": "IC50", "Endpoint Result": 0.62}
{"Structure Notation": "C[C@H]1CN(c2ccncc2NC(=O)c2ccc(F)c(-c3c(F)cc(OCCO)cc3F)n2)C[C@@H](N)[C@@H]1O", "Property": "IC50", "Endpoint Result": 0.34}

(1) C[C@H]1CN(c2ccncc2NC(=O)c2ccc(F)c(-c3c(F)cc(C4(O)COC4)cc3F)n2)C[C@@H](N)[C@@H]1O
(2) Cc1noc(C)c1-c1cc(F)c(-c2nc(C(=O)Nc3cnccc3[C@H]3C[C@@H](N)[C@H](O)[C@@H](C)C3)ccc2F)c(F)c1
(3) C[C@H]1CN(c2ccncc2NC(=O)c2ccc(F)c(-c3c(F)cc(C4(F)CCOCC4)cc3F)n2)C[C@@H](N)[C@@H]1O
(4) C[C@@H]1C[C@H](N)C[C@H](c2ccncc2NC(=O)c2ccc(F)c(-c3c(F)cc(OCC(F)(F)F)cc3F)n2)C1
// query Please give the order of these compounds when sorted by IC50, largest value leading. Output spec: labels arranged per the requested ranking.
// result 2, 4, 1, 3

###

Observed IC50 for Pim 1 (Homo sapiens, UniProt P11309), reported per entry below.
Property: IC50 (nM)

Consider the worked cases shown below.
{"Molecule": "COCCOc1ccc(F)c(-c2nc(C(=O)Nc3cnccc3[C@H]3C[C@@H](N)[C@H](O)[C@@H](C)C3)ccc2F)c1F", "Property": "IC50", "Endpoint Result": 0.13}
{"Molecule": "C[C@H]1CN(c2ccncc2NC(=O)c2nc(-c3c(F)cc(C(C)(C)O)cc3F)c(F)cc2N)C[C@@H](N)[C@@H]1O", "Property": "IC50", "Endpoint Result": 0.01}
{"Molecule": "CC(C)[C@@H]1C[C@H](N)C[C@H](c2ccncc2NC(=O)c2ccc(F)c(-c3c(F)cc(C4(O)CCC4)cc3F)n2)C1", "Property": "IC50", "Endpoint Result": 0.02}

(I) C[C@H]1C[C@@H](c2ccncc2NC(=O)c2ccc(F)c(-c3c(F)cc(OC4CCOCC4)cc3F)n2)C[C@@H](N)[C@@H]1O
(II) CC(C)Oc1cc(F)c(-c2cccc(C(=O)Nc3cnccc3[C@H]3C[C@@H](N)[C@H](O)[C@@H](C)C3)n2)c(F)c1
(III) C[C@@H]1C[C@H](N)C[C@H](c2ccncc2NC(=O)c2ccc(F)c(-c3c(F)cc(C4CCS(=O)(=O)CC4)cc3F)n2)C1
(IV) N[C@H]1CCC[C@@H](c2ccncc2NC(=O)c2ccc(F)c(-c3c(F)cc(COC4CCOCC4)cc3F)n2)C1
// query Returns the items ordered by IC50, from maximum to minimum. Rank them, then answer with their labels in that order.
// result IV, II, I, III
(IV: 0.1 nM, II: 0.04 nM, I: 0.02 nM, III: 0.01 nM)

(I) CC(C)Oc1cc(F)c(-c2nc(C(=O)Nc3cnccc3[C@H]3C[C@@H](N)[C@@H](O)[C@@H](C)C3)ccc2F)c(F)c1
(II) CCc1cc(F)c(-c2nc(C(=O)Nc3cnccc3N3C[C@@H](N)[C@H](O)[C@@H](C)C3)ccc2F)c(F)c1
// query Which numeric IC50 is bigger, that of I or that of II ? Please identify the chosen entry by its label.
// result I
(I: 0.03 nM, II: 0.02 nM)

(P) COCCc1cc(F)c(-c2nc(C(=O)Nc3cnccc3[C@H]3C[C@@H](N)[C@H](O)[C@@H](C)C3)ccc2F)c(F)c1
(Q) COC1(c2cc(F)c(-c3nc(C(=O)Nc4cnccc4[C@H]4C[C@@H](N)[C@H](O)[C@@H](C)C4)c(N)cc3F)c(F)c2)COC1
(R) C[C@@H]1C[C@H](N)C[C@H](c2ccncc2NC(=O)c2ccc(F)c(-c3c(F)cc(C4(O)CC4)cc3F)n2)C1
// query Put the molecules in ascending order of IC50. Put the labels in the requested order and list them out.
// result R, Q, P
(R: 0.01 nM, Q: 0.02 nM, P: 0.04 nM)

(a) COCCOc1cc(F)c(-c2nc(C(=O)Nc3cnccc3[C@@H]3C[C@H](C)C[C@H](N)C3)ccc2F)c(F)c1
(b) C[C@@H]1C[C@H](N)C[C@H](c2ccncc2NC(=O)c2ccc(F)c(-c3c(F)cc(C4(O)COC4)cc3F)n2)C1
// query From the recorded data, which exceeds the other in IC50: a or b ? Could you answer with the label of the item you picked?
// result a
